System: H. influenzae ATCC 49247
ASSAY PROTOCOL: MIC, NCCLS broth microdilution
Format: cell-based, Haemophilus influenzae
PARTICULARS: Haemophilus influenzae, ATCC49247, H. influenzae ATCC 49247; 5% CO2; Table 1; read-out: MIC
PARAMETER: MIC (µg/mL)
Answer in µg/mL, number only, no unit symbol.

COMPOUND	SYSTEM TESTED	MIC [µg/mL]
CC[C@H]1OC(=O)[C@H](C)[C@@H](O[C@H]2C[C@@](C)(OC)[C@@H](O)[C@H](C)O2)[C@H](C)[C@@H](O[C@@H]2O[C@H](C)C[C@H](N(C)C)[C@H]2O)[C@](C)(O)C[C@@H](C)CN(C)[C@H](C)[C@@H](O)[C@]1(C)O [Azithromycin, reference compound]	H. influenzae ATCC 49247	2

Now for a further compound.
Exam item: For the compound CC[C@H]1OC(=O)[C@H](C)C(=O)[C@H](C)[C@@H](O[C@@H]2O[C@H](C)C[C@H](N(C)C)[C@H]2O)[C@](C)(OC)C[C@@H](C)C(=O)[C@H](C)[C@H]2N(CCCCn3cnc(-c4cccnc4)c3)C(=O)O[C@]12C [Telithromycin, reference compound] , what MIC is on record?
Marked response: 2
